System: Candida albicans
Test: Antifungal activity against Candida albicans ATCC 10231 at 20 ug/disk after 48 hr by disk-diffusion method
Type: functional
Active and inactive are the calls of the source. The rule behind the calls is not given here.
quantity-name: diameter of the inhibition zone (DIZ)

Example results:
CC1(C)CC(=O)C2=C(C1)OC1=C(C(=O)CC(C)(C)C1)C2c1ccc(C2C3=C(CC(C)(C)CC3=O)OC3=C2C(=O)CC(C)(C)C3)cc1 : inactive
CC1(C)CC(=O)C2=C(C1)OC1=C(C(=O)CC(C)(C)C1)C2c1cccc(C2C3=C(CC(C)(C)CC3=O)OC3=C2C(=O)CC(C)(C)C3)c1 : inactive
O=C1CCCC2=C1C(c1cccc(C3C4=C(CCCC4=O)OC4=C3C(=O)CCC4)c1)C1=C(CCCC1=O)O2 : inactive
CC1(C)CCC2=C(C1=O)C(c1ccc(C3C4=C(CCC(C)(C)C4=O)OC4=C3C(=O)C(C)(C)CC4)cc1)C1=C(CCC(C)(C)C1=O)O2 : inactive

Next molecule, diameter of the inhibition zone (DIZ) to be filled in.
Query: Request the reported diameter of the inhibition zone (DIZ) associated with COc1ccc(C2CC(=O)C3=C(C2)OC2=C(C(=O)CC(c4ccc(OC)c(OC)c4)C2)C3c2ccc(C3C4=C(CC(c5ccc(OC)c(OC)c5)CC4=O)OC4=C3C(=O)CC(c3ccc(OC)c(OC)c3)C4)cc2)cc1OC (stereo not given)
Reply: inactive

----------
Test system: Staphylococcus epidermidis
Assay: Antibacterial activity against Staphylococcus epidermidis ATCC 12228 at 20 ug/disk after 24 hr by disk diffusion method
Type: functional, organism-based
Activity calls are given as the source filed them. The calls are words filed in the database; no cut-off is given here.
quantity-name: diameter of the inhibition zone (DIZ)

O=C1CC(c2ccccc2)CC2=C1C(c1cccc(C3C4=C(CC(c5ccccc5)CC4=O)OC4=C3C(=O)CC(c3ccccc3)C4)c1)C1=C(CC(c3ccccc3)CC1=O)O2 (stereo not drawn) : inactive
O=C1CCCC2=C1C(c1cccc(C3C4=C(CCCC4=O)OC4=C3C(=O)CCC4)c1)C1=C(CCCC1=O)O2 : inactive
CC1(C)CC(=O)C2=C(C1)OC1=C(C(=O)CC(C)(C)C1)C2c1cccc(C2C3=C(CC(C)(C)CC3=O)OC3=C2C(=O)CC(C)(C)C3)c1 : inactive

----------
Test system: Staphylococcus epidermidis
Experiment: Antibacterial activity against Staphylococcus epidermidis ATCC 12228 at 140 ug/disk after 24 hr by disk diffusion method
Format: functional
Activity calls are given as the source filed them. The calls are words filed in the database; no cut-off is given here.
quantity-name: diameter of the inhibition zone (DIZ)

O=C1CCCC2=C1C(c1cccc(C3C4=C(CCCC4=O)OC4=C3C(=O)CCC4)c1)C1=C(CCCC1=O)O2 : inactive
O=C1CC(c2ccccc2)CC2=C1C(c1cccc(C3C4=C(CC(c5ccccc5)CC4=O)OC4=C3C(=O)CC(c3ccccc3)C4)c1)C1=C(CC(c3ccccc3)CC1=O)O2 (stereo not drawn) : inactive
CC1(C)CC(=O)C2=C(C1)OC1=C(C(=O)CC(C)(C)C1)C2c1cccc(C2C3=C(CC(C)(C)CC3=O)OC3=C2C(=O)CC(C)(C)C3)c1 : inactive

----------
Test system: Rhodotorula mucilaginosa
Experiment: Antifungal activity against Rhodotorula mucilaginosa at 140 ug/disk after 48 hr by disk diffusion method
Assay type: functional
Settings: read-out: DIZ
Measured zone of inhibition at 140 µg/disc of individual entries
Lab book: enter the figure in mm, no units written.

O=C1CCCC2=C1C(c1cccc(C3C4=C(CCCC4=O)OC4=C3C(=O)CCC4)c1)C1=C(CCCC1=O)O2 : 9
CC1(C)CCC2=C(C1=O)C(c1cccc(C3C4=C(CCC(C)(C)C4=O)OC4=C3C(=O)C(C)(C)CC4)c1)C1=C(CCC(C)(C)C1=O)O2 : 12
CC1(C)CC(=O)C2=C(C1)OC1=C(C(=O)CC(C)(C)C1)C2c1ccc(C2C3=C(CC(C)(C)CC3=O)OC3=C2C(=O)CC(C)(C)C3)cc1 : 9
CC1(C)CC(=O)C2=C(C1)OC1=C(C(=O)CC(C)(C)C1)C2c1cccc(C2C3=C(CC(C)(C)CC3=O)OC3=C2C(=O)CC(C)(C)C3)c1 : 7
O=C1CC(c2ccccc2)CC2=C1C(c1ccc(C3C4=C(CC(c5ccccc5)CC4=O)OC4=C3C(=O)CC(c3ccccc3)C4)cc1)C1=C(CC(c3ccccc3)CC1=O)O2 (configuration not stated) : 7

Query: Record O=C1CC(c2ccccc2)CC2=C1C(c1cccc(C3C4=C(CC(c5ccccc5)CC4=O)OC4=C3C(=O)CC(c3ccccc3)C4)c1)C1=C(CC(c3ccccc3)CC1=O)O2 (configuration not stated) : what is its zone of inhibition at 140 µg/disc with Rhodotorula mucilaginosa?
Reply: 7

Query: Can you check O=C1CCCC2=C1C(c1ccc(C3C4=C(CCCC4=O)OC4=C3C(=O)CCC4)cc1)C1=C(CCCC1=O)O2 next?
Reply: 10

----------
System: Aspergillus niger
Experiment: Antifungal activity against Aspergillus niger ATCC 10949 at 20 ug/disk after 72 hr by disk diffusion method
Type: functional, organism-based
The source made the active and inactive calls. The rule behind the calls is not given here.
quantity-name: diameter of the inhibition zone (DIZ)

COc1ccc(C2CC(=O)C3=C(C2)OC2=C(C(=O)CC(c4ccc(OC)c(OC)c4)C2)C3c2ccc(C3C4=C(CC(c5ccc(OC)c(OC)c5)CC4=O)OC4=C3C(=O)CC(c3ccc(OC)c(OC)c3)C4)cc2)cc1OC (stereo not drawn) : inactive
CC1(C)CC(=O)C2=C(C1)OC1=C(C(=O)CC(C)(C)C1)C2c1cccc(C2C3=C(CC(C)(C)CC3=O)OC3=C2C(=O)CC(C)(C)C3)c1 : inactive
CC1(C)CCC2=C(C1=O)C(c1ccc(C3C4=C(CCC(C)(C)C4=O)OC4=C3C(=O)C(C)(C)CC4)cc1)C1=C(CCC(C)(C)C1=O)O2 : inactive

----------
Test system: Candida albicans
Experiment: Antifungal activity against Candida albicans ATCC 10231 at 40 ug/disk after 48 hr by disk-diffusion method
Format: functional
Details: ATCC 10231, 48 h, read-out: DIZ
quantity-name: zone of inhibition at 40 µg/disc (mm)
Please reply with the bare figure in mm and do not write the unit itself.

Query: Request the reported zone of inhibition at 40 µg/disc associated with O=C1CCCC2=C1C(c1ccc(C3C4=C(CCCC4=O)OC4=C3C(=O)CCC4)cc1)C1=C(CCCC1=O)O2
Reply: 8

Query: Here is the next compound: CC1(C)CC(=O)C2=C(C1)OC1=C(C(=O)CC(C)(C)C1)C2c1cccc(C2C3=C(CC(C)(C)CC3=O)OC3=C2C(=O)CC(C)(C)C3)c1
Reply: 7

----------
Each entry below lists one item and its recorded zone of inhibition at 40 µg/disc value.
System: Candida albicans
Experiment: Antifungal activity against Candida albicans ATCC 10231 at 40 ug/disk after 48 hr by disk-diffusion method
Format: functional
Settings: ATCC 10231, 48 h, read-out: DIZ
Numeric answer only, unit mm assumed.

COc1ccc(C2CC(=O)C3=C(C2)OC2=C(C(=O)CC(c4ccc(OC)c(OC)c4)C2)C3c2ccc(C3C4=C(CC(c5ccc(OC)c(OC)c5)CC4=O)OC4=C3C(=O)CC(c3ccc(OC)c(OC)c3)C4)cc2)cc1OC (centres undefined) : 7
O=C1CC(c2ccccc2)CC2=C1C(c1cccc(C3C4=C(CC(c5ccccc5)CC4=O)OC4=C3C(=O)CC(c3ccccc3)C4)c1)C1=C(CC(c3ccccc3)CC1=O)O2 (centres undefined) : 8
COc1ccc(C2CC(=O)C3=C(C2)OC2=C(C(=O)CC(c4ccc(OC)c(OC)c4)C2)C3c2cccc(C3C4=C(CC(c5ccc(OC)c(OC)c5)CC4=O)OC4=C3C(=O)CC(c3ccc(OC)c(OC)c3)C4)c2)cc1OC (centres undefined) : 7

The record that follows has no zone of inhibition at 40 µg/disc shown yet.
Query: Lab request: please report zone of inhibition at 40 µg/disc under test system Candida albicans for O=C1CCCC2=C1C(c1cccc(C3C4=C(CCCC4=O)OC4=C3C(=O)CCC4)c1)C1=C(CCCC1=O)O2
Reply: 7
